target: T1, 417N/484K/501Y RBD mutant (SARS-CoV-2, Wuhan-Hu-1 RBD backbone …, 417N | 484K | 501Y); assay: BLI; details: both partners purified
T1 construct: also called RBD KEN
PROPERTY_MEASURED: Kd (nM)
Answers are plain numbers, in nM.

binder="V013 (antibody, V domains shown, IgG; donor BRA13; source: recombinant monoclonal IgG, produced and purified as previously described) VH: QVQLVESGGGVVQPGRSLRLSCAGSGFIFSSFAMHWVRQAPGKGLEWVAVVSYDGDNKYYADSVKGRFTISRDNSKNTLYLQMDSLRPEDTAVYFCGRDEAALWIQRWYREIDFWGQGTLVTVSS VL: QSVLTQPPSVSGTPGQRVTISCSGSSSNTGRNPVTWYQQFPGSAPKLLISRNNQRPSGVPDRFSGSKSGTSASLAISGLQSEDEADYYCAAWDDNLNGQVFGGGTKVTVL" property_measured=Kd display_unit=nM experimental_value=166
binder="V015 (antibody, V domains shown, IgG; donor BRA13; source: recombinant monoclonal IgG, produced and purified as previously described) VH: EVQLVESGGGLVQPGGSLRLSCAASGFTFNSYWMSWVRQAPGKGLEWVANIKQDGSEKYYVDSVKGRFTISRDNAKNSLYLQMNSLRAEDTAVYYCARLPTYYSGFDYWGQGTLVTVSS VL: NFMLTQPHSVSESPGKTVTISCTGSSGSIASNYVQWYQQRPGSAPTTVIYEDNQRPSGVPDRFSGSIDSSSNSASLTISGLKTEDEADYYCQSYDSTNRGVVFGGGTKLTVL" property_measured=Kd display_unit=nM experimental_value=14.3
binder="V051 (antibody, V domains shown, IgG; donor BRA15; source: recombinant monoclonal IgG, produced and purified as previously described) VH: QVQLVESGGGVVQPGRSLRLSCEASGFTFSTYAMHWVRQAPGKGLEWVAVISYDGNNKYYADSVKGRLTVSRDNSKNTLYLQMNSLRAEDTAEYYCARDDGGYCSSLSCPMDVWGQGTTVTVSS VL: SYELTQPPSVSVAPGKTARITCGGNSIGSKSVHWYQQRPGQAPVLVIYYDSDRPSGIPERFSGSNSGNTATLTISRVEAGDEADYYCQVWDSTLVFGGGTKLTVL" property_measured=Kd display_unit=nM experimental_value=7.05

Go through the list and state Kd for each entry.
1. V042 (antibody, V domains shown, IgG; donor BRA15; source: recombinant monoclonal IgG, produced and purified as previously described) VH: QLQLQESGPGLVKPSETLSLTCTVSGGSISSSTNYWGWIRQPPGKGLEWIGSIDYSGSTYYNPSLKSRVTMSVDTSKNQFSLKLSSVTATDTAMYYCARHVIDDSRGYYPAALDHWSQGTLVTVSS VL: EIVLTQSPATLSLSPGERATLSCRASQSVNNYLAWYQQKPGQAPRLLIYDASNRATGVPARFSGSGSGTDFTLTISSLEPEDFAVYFCQQRSNWPPMYTFGQGTKLEIK
2. V038 (antibody, V domains shown, IgG; donor BRA15; source: recombinant monoclonal IgG, produced and purified as previously described) VH: QVQLVQSGAEVKKPGASVKVSCKASGYTFTGYYVHWVRQAPGQGLEWMGWINPNSGGTNFAQRFQGRVTMTRDTSISTAYMELSRLRSDDTAVYYCARGITVYGVAPDAFDIWGQGTMVTVSS VL: DIQMTQSPSSLSASVGDRVTITCQASQDISNYLNWYQQKPGKAPKVLIYDASNLEPGVPSRFSGSGSGTDFTFTISSLQPEDIATYYCQQYDNLITFGQGTRLEIK

23.3
2.37
